Literature survey of IC50 (system: Rho-associated protein kinase 1 (Homo sapiens, UniProt Q13464)).
ASSAY_METRIC: IC50 (nM)

COc1cc(-c2cn[nH]c2)ccc1C(=O)N[C@@H](Cc1ccccc1)[C@H](O)CO    15.4
CCc1ccc(-c2ccncc2)cc1C(=O)N[C@H](CO)c1cccc(C(=O)NC2CCCC2)c1    3.84
CC(C)NC(=O)c1cccc(CNC(=O)c2ccc(-c3ccncc3)cc2)c1    21.7
Cc1n[nH]c2ccc(-c3cccc(C(=O)NC(CN)c4cccc(Cl)c4)c3)cc12 (centres unmarked)    153
CN(C(=O)c1cc2ccc(-c3nccc(Nc4ccc5[nH]ncc5c4)n3)cc2[nH]1)c1ccnnc1    5580

1 = COc1cccc(CN(CCO)C(=O)Nc2cc(-c3ccncc3)[nH]n2)c1
2 = CC(C)NC(=O)c1cc2ccc(-c3nc(Nc4ccc5[nH]ncc5c4)c4sccc4n3)cc2[nH]1
3 = Cc1cc(C(=O)NCc2ccc(F)cc2Cl)ccc1-c1cn[nH]c1
Ascending by IC50, please. Return the labels ranked in the requested order, please.
3, 1, 2
(3: 16.9 nM, 1: 237 nM, 2: 839 nM)

I = COc1cc(C(=O)NCc2cccc(C#N)c2)ccc1-c1cn[nH]c1
II = COc1cc(-c2c[nH]nc2C)ccc1C(=O)NCc1c(F)cccc1Cl
Param metric = IC50; output whichever of I , II has the minimum value. Bench note: the answer is the label of the chosen record.
II
